# Assay system: Sodium/potassium-transporting ATPase subunit alpha-2/beta-1 (Homo sapiens, UniProt P05026+P50993)
# Measurement notes: Na,K-ATPase Inhibition Assay
Quick reference: pKi of the listed items.
Give only the number. pKi is defined as minus log10 of concentration in molar units.

Use these answered entries as a reference point.
Compound	Test readout	Observed value
CC1CN(NC(N)=O)CCC(O[C@@H]2[C@H](C)O[C@@H](O[C@@H]3[C@H](C)O[C@@H](O[C@H]4CC[C@@]5(C)C(CCC6C5C[C@H](O)[C@]5(C)[C@@H](C7=CC(=O)OC7)CC[C@]65O)C4)C[C@@H]3O)C[C@@H]2O)O1 (some centres undefined)	pKi	7.70
CC1CN(O)CCC(O[C@@H]2[C@H](C)O[C@@H](O[C@@H]3[C@H](C)O[C@@H](O[C@H]4CC[C@@]5(C)C(CCC6C5C[C@H](O)[C@]5(C)[C@@H](C7=CC(=O)OC7)CC[C@]65O)C4)C[C@@H]3O)C[C@@H]2O)O1 (some centres undefined)	pKi	6.87

// recorded pKi for CC1CN(C(CO)C(N)=O)CCC(O[C@@H]2[C@H](C)O[C@@H](O[C@@H]3[C@H](C)O[C@@H](O[C@H]4CC[C@@]5(C)C(CCC6C5C[C@H](O)[C@]5(C)[C@@H](C7=CC(=O)OC7)CC[C@]65O)C4)C[C@@H]3O)C[C@@H]2O)O1 (some centres undefined) : 6.84

pKi measured on CC1CN(CCN)CCC(O[C@@H]2[C@H](C)O[C@@H](O[C@@H]3[C@H](C)O[C@@H](O[C@H]4CC[C@@]5(C)C(CCC6C5C[C@H](O)[C@]5(C)[C@@H](C7=CC(=O)OC7)CC[C@]65O)C4)C[C@@H]3O)C[C@@H]2O)O1 (some centres undefined) = 7.78

###

# Assay system: Sodium/potassium-transporting ATPase subunit alpha-2/beta-1 (Homo sapiens, UniProt P05026+P50993)
# Measurement notes: Na,K-ATPase Inhibition Assay
Test readout: Ki

Check out these entries, answers already filled in.
Compound	Observed value
CC1CN(CC(N)=O)CCC(O[C@@H]2[C@H](C)O[C@@H](O[C@@H]3[C@H](C)O[C@@H](O[C@H]4CC[C@@]5(C)C(CCC6C5C[C@H](O)[C@]5(C)[C@@H](C7=CC(=O)OC7)CC[C@]65O)C4)C[C@@H]3O)C[C@@H]2O)O1 (stereo partly drawn) [DGlyN (4)]	20.4 nM
CC1CN(CCC(N)=O)CCC(O[C@@H]2[C@H](C)O[C@@H](O[C@@H]3[C@H](C)O[C@@H](O[C@H]4CC[C@@]5(C)C(CCC6C5C[C@H](O)[C@]5(C)[C@@H](C7=CC(=O)OC7)CC[C@]65O)C4)C[C@@H]3O)C[C@@H]2O)O1 (stereo partly drawn) [DPrN (9)]	47 nM
C[C@H]1O[C@@H](O[C@H]2[C@@H](O)C[C@H](O[C@H]3CC[C@@]4(C)[C@H](CC[C@@H]5[C@@H]4C[C@@H](O)[C@]4(C)[C@@H](C6=CC(=O)OC6)CC[C@]54O)C3)O[C@@H]2C)C[C@H](O)[C@@H]1O [Dbis]	74 nM
CC1CN(CC(=O)O)CCC(O[C@@H]2[C@H](C)O[C@@H](O[C@@H]3[C@H](C)O[C@@H](O[C@H]4CC[C@@]5(C)C(CCC6C5C[C@H](O)[C@]5(C)[C@@H](C7=CC(=O)OC7)CC[C@]65O)C4)C[C@@H]3O)C[C@@H]2O)O1 (stereo partly drawn) [DGly (2)]	25 nM

Ki for CCN1CCC(O[C@@H]2[C@H](C)O[C@@H](O[C@@H]3[C@H](C)O[C@@H](O[C@H]4CC[C@@]5(C)C(CCC6C5C[C@H](O)[C@]5(C)[C@@H](C7=CC(=O)OC7)CC[C@]65O)C4)C[C@@H]3O)C[C@@H]2O)OC(C)C1 (stereo partly drawn) [DEt (12)] is 18.5 nM

According to the records, this compound C[C@]12CC[C@H](O)C[C@H]1CC[C@@H]1[C@@H]2C[C@@H](O)[C@]2(C)[C@@H](C3=CC(=O)OC3)CC[C@]12O [CS337] displays Ki of 130 nM

Form field Ki, entry CC1CN(CC(F)(F)F)CCC(O[C@@H]2[C@H](C)O[C@@H](O[C@@H]3[C@H](C)O[C@@H](O[C@H]4CC[C@@]5(C)C(CCC6C5C[C@H](O)[C@]5(C)[C@@H](C7=CC(=O)OC7)CC[C@]65O)C4)C[C@@H]3O)C[C@@H]2O)O1 (stereo partly drawn) [DMeCF3 (13)] : 44 nM

Consider CC1CN(C(CC(=O)O)CC(=O)O)CCC(O[C@@H]2[C@H](C)O[C@@H](O[C@@H]3[C@H](C)O[C@@H](O[C@H]4CC[C@@]5(C)C(CCC6C5C[C@H](O)[C@]5(C)[C@@H](C7=CC(=O)OC7)CC[C@]65O)C4)C[C@@H]3O)C[C@@H]2O)O1 (stereo partly drawn) [DbisGly (14)] . Its measured Ki is 34.9 nM

Reference source for all entries: BindingDB's records for doi:10.1074/jbc.M114.557629
